- Assay Notes: Oral pharmacokinetics in Sprague-Dawley rats
- Test Settings: rat, in vivo, 25 mg/kg oral
Observation Type: Cmax (ng/mL)
Express your answer in ng/mL, writing the number without its unit.

Problem: What does the data say about its Cmax? Entry: O=C(NC12CCC(C(=O)O)(CC1)CC2)[C@@H]1NC2(CCCCC2)[C@@]2(C(=O)Nc3cc(Cl)ccc32)[C@H]1c1cccc(Cl)c1F
Solution: 8230

* * *

- Test system: HCT116 p53 deleted (HCT116 p53−/−)
- Assay Notes: Cell growth assay (WST-8), HCT116 p53 deleted
- Type: cell-based
- Test Settings: Homo sapiens, HCT-116, 96 h; Colon cancer, p53 knock-out, 4 days, WST assay; read-out: Cell Growth Inhibition (IC50) HCT116 p53−/−
Observation Type: IC50
The reply should read as a number followed by its unit.

Problem: Item: O=C(NC12CCC(C(=O)O)(CC1)CC2)[C@@H]1NC2(CCCCC2)[C@@]2(C(=O)Nc3cc(Cl)ccc32)[C@H]1c1cccc(Cl)c1F Test system: HCT116 p53 deleted (HCT116 p53−/−) Read-out: IC50 Value: ?
Solution: 14 µM

Problem: Item: CCN1[C@@H](C(=O)NC23CCC(C(=O)O)(CC2)CC3)[C@H](c2cccc(Cl)c2F)[C@]2(C(=O)Nc3cc(Cl)ccc32)C12CCCCC2 Test system: HCT116 p53 deleted (HCT116 p53−/−) Read-out: IC50 Value: ?
Solution: 8 µM

* * *

- Measured Target: recombinant human His-tagged MDM2 protein (residues 1-118) (Homo sapiens)
- Assay Notes: Fluorescence-polarization MDM2 competitive binding assay
- Test Settings: MDM2 (FP binding assay) Ki(nM), competitive FP
Observation Type: Ki

Problem: Item: O=C(NC12CCC(C(=O)O)(CC1)CC2)[C@@H]1NC2(CCC(F)(F)CC2)[C@@]2(C(=O)Nc3cc(Cl)ccc32)[C@H]1c1cccc(Cl)c1F Test system: recombinant human His-tagged MDM2 protein (residues 1-118) (Homo sapiens) Read-out: Ki Value: ?
Solution: < 1 nM

Problem: Item: CN1[C@@H](C(=O)NC23CCC(C(N)=O)(CC2)CC3)[C@H](c2cccc(Cl)c2F)[C@]2(C(=O)Nc3cc(Cl)ccc32)C12CCCCC2 Test system: recombinant human His-tagged MDM2 protein (residues 1-118) (Homo sapiens) Read-out: Ki Value: ?
Solution: < 1 nM

Problem: Item: CC1(O)CCC2(CC1)N[C@@H](C(=O)NC13CCC(C(=O)O)(CC1)CC3)[C@H](c1cccc(Cl)c1F)[C@]21C(=O)Nc2cc(Cl)ccc21 (stereo partly shown) [Cpd No. 6] Test system: recombinant human His-tagged MDM2 protein (residues 1-118) (Homo sapiens) Read-out: Ki Value: ?
Solution: < 1 nM

Problem: Item: CC1(O)CCC2(CC1)N[C@@H](C(=O)NC13CCC(C(=O)O)(CC1)CC3)[C@H](c1cccc(Cl)c1F)[C@]21C(=O)Nc2cc(Cl)ccc21 (stereo partly shown) [Cpd No. 5] Test system: recombinant human His-tagged MDM2 protein (residues 1-118) (Homo sapiens) Read-out: Ki Value: ?
Solution: 30 nM

* * *

- Assay Notes: Microsomal stability, human
- Assay type: in vitro ADME
- Test Settings: human microsomes; read-out: Microsomal stability T1/2 (min) Human
Observation Type: half-life

Problem: What does the data say about its half-life? Entry: CN1[C@@H](C(=O)NC23CCC(C(=O)O)(CC2)CC3)[C@H](c2cccc(Cl)c2F)[C@]2(C(=O)Nc3cc(Cl)ccc32)C12CCCCC2
Solution: > 60 min

Problem: What does the data say about its half-life? Entry: O=C(NC12CCC(C(=O)O)(CC1)CC2)[C@@H]1NC2(CCCCC2)[C@@]2(C(=O)Nc3cc(Cl)ccc32)[C@H]1c1cccc(Cl)c1F
Solution: > 60 min

Problem: What does the data say about its half-life? Entry: CCN1[C@@H](C(=O)NC23CCC(C(=O)O)(CC2)CC3)[C@H](c2cccc(Cl)c2F)[C@]2(C(=O)Nc3cc(Cl)ccc32)C12CCCCC2
Solution: > 60 min
